B1: TPR 5TU (parent)
chain: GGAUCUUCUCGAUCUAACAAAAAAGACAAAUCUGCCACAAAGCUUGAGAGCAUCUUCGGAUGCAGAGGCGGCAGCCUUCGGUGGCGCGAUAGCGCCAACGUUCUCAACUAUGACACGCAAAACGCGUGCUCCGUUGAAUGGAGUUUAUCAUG

Variants of: B1
Experiment Summary: polymerase ribozyme fitness, log enrichment relative to wild type (log ratio); higher = more active; in vitro selection for triplet polymerase activity
This sample holds only a part of the variants without activity.
Each entry below carries its recorded polymerase ribozyme fitness (log ratio).
No unit in the answer, please; the number alone is enough.

>>> df
            variant  measured
0  G94C U101A G152A     -2.72
1        A24G C125G     -3.52
2       A137C A138G     -3.68
3        A22U A115C    -0.374

Let us examine a further case.
Measured polymerase ribozyme fitness (log ratio), C87U G141U : 0.462
